- assay-target: Nox1 (Homo sapiens, UniProt Q9Y5S8)
- Sequence (Q9Y5S8 whole entry): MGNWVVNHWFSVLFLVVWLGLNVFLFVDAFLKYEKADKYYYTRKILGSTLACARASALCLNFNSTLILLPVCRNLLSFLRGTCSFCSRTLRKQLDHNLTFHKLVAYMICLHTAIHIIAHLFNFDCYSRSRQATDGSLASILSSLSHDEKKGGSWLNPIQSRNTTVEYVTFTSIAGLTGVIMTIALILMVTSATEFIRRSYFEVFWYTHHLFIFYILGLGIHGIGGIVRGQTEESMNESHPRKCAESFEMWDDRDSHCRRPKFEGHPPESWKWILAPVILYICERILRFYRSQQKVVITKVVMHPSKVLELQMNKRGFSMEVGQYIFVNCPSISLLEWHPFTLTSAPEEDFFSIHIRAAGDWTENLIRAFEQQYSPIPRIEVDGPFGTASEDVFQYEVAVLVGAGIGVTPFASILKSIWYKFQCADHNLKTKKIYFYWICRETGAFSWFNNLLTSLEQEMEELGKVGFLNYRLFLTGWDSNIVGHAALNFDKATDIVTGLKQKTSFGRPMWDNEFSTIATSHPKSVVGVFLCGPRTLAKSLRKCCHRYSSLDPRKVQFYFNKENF
- Sequence (P13498 2-195 partner limits assumed): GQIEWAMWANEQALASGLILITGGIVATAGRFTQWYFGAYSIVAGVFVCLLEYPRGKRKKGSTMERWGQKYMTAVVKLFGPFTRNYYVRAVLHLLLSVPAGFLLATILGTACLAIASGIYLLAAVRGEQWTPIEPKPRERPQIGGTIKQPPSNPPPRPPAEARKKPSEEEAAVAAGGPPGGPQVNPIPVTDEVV
- procedure-details: Luminol-based chemiluminescence
- Type: cell-based
measurement-type: IC50

[in] Return value of IC50 for input CN(C)CCCN1c2ccccc2Sc2ccc(Cl)cc21 [chlorpromazine, reference compound] , no commentary.
[out] > 50 µM

---

- assay-target: Nox1 (Homo sapiens, UniProt Q9Y5S8)
- procedure-details: Luminol-based chemiluminescence
- Assay type: cell-based
- experimental-context: read-out: Micromolar IC50 HT29 Assay; HT29 cell-based assay, ROS generation, SAR study
measurement-type: pIC50
Notebook: values listed as pIC50 are -log10 of the concentration (mol/L).

>  <compound>
Cc1ccc(S(=O)(=O)c2ccc3c(c2)Sc2ccc(Cl)cc2N3)cc1 [SR-03000000707-1]

>  <measurement-type>
pIC50

>  <numeric-result>
5.28

$$$$
>  <compound>
O=[N+]([O-])c1ccc2c(c1)Sc1ccc(C(F)(F)F)cc1N2 [SR-03000000695-1]

>  <measurement-type>
pIC50

>  <numeric-result>
5.85

$$$$
>  <compound>
CCOC(=O)Nc1ccc2c(c1)Nc1ccccc1S2 [SR-01000477673-3]

>  <measurement-type>
pIC50

>  <numeric-result>
6.04

$$$$
>  <compound>
c1ccc2c(c1)Nc1ccccc1S2 [SR-01000721844-3]

>  <measurement-type>
pIC50

>  <numeric-result>
6.43

$$$$
>  <compound>
COc1ccc2c(c1)Sc1ccccc1N2 [SR-01000025134-3]

>  <measurement-type>
pIC50

>  <numeric-result>
6.03

$$$$
>  <compound>
CC(O)c1ccc2c(c1)Nc1ccccc1S2 (centres unmarked) [SR-03000000760-1]

>  <measurement-type>
pIC50

>  <numeric-result>
6.44

$$$$
>  <compound>
Clc1ccc2c(c1)Nc1ccccc1S2 [SR-01000596948-2]

>  <measurement-type>
pIC50

>  <numeric-result>
6.60

$$$$

Shift focus to the following entry.
[in] Return the recorded pIC50 value; entry: COc1ccc2c(c1)Sc1ccc(Cl)cc1N2 [SR-03000000698-1]
[out] 6.75
